Test system: HCC1569
Experiment: cell number relative to DMSO (% of DMSO); higher = more cells (less growth inhibition / toxicity)
Conditions used: concentration: 10 µM; 24 h
Property label: cell number
Kindly provide the number alone.

COc1ccc(-c2cc(=O)c3c(O)cc(O)cc3o2)cc1
98.4
O=C(O)CCCC(O)C=CC=CC=CC(O)CC=CCCCCCO (stereo not given) [20-Hydroxy-leukotriene B4]
100
CCCCCC=CCC=CCC=CCCCCCCC(=O)O
99.6
NC1CONC1=O (stereo not given)
102
Cc1nc2ccccn2c(=O)c1CCN1CCC(C(=O)c2ccc(F)cc2)CC1
99.5

Per the records, this compound ( CCCCC(C)(C)C(O)C=CC1C(O)CC(=O)C1CC=CCCCC(=O)O (stereo not given) [16,16-Dimethyl-prostaglandin E2] ) has cell number equal to 100

Per the records, this compound ( COC1C(OC(N)=O)C(O)C(Oc2ccc3c(O)c(NC(=O)c4ccc(O)c(CC=C(C)C)c4)c(=O)oc3c2C)OC1(C)C.[Na+] (stereo not given) ) has cell number equal to 103

Per the records, this compound ( `CN1CCC(=C2c3ccccc3C=Cc3ccccc32)CC1` ) has cell number equal to 100

Per the records, this compound ( CC1CCN(CCC2CCCN2S(=O)(=O)c2cccc(O)c2)CC1.Cl (stereo not given) ) has cell number equal to 102

Per the records, this compound ( `Cc1cc2nc3c(=O)[nH]c(=O)nc-3n(C)c2cc1C=O` ) has cell number equal to 99.8

* * *

Test system: TDF
Experiment: H1.0 immunofluorescence intensity relative to DMSO (% of DMSO); higher = stronger H1.0 induction, active = 120 or more
Conditions used: concentration: 10 µM; 24 h
Threshold rule: H1.0 immunofluorescence intensity greater than or equal to 100 is 1; below that, 0.

Here are 3 molecules together with their reported answers.
CCCCCCC=CCCCCCCCCCC(=O)O [11(E)-Octadecenoic acid]
1
CC1CN(c2c(F)c(N)c3c(=O)c(C(=O)O)cn(C4CC4)c3c2F)CC(C)N1 (stereo not given)
0
CC(=O)SCC[N+](C)(C)C.[Cl-] [Acetylthiocholine chloride]
0

# bool: H1.0 immunofluorescence intensity of C[N+](C)(C)CCCCCC[N+](C)(C)C.[Cl-].[Cl-] [Hexamethonium dichloride] >= 100
0

# bool: H1.0 immunofluorescence intensity of `c1ccc(-c2ccccn2)nc1` >= 100
1

# bool: H1.0 immunofluorescence intensity of CCc1cc(CCC2(C3CCCC3)CC(O)=C(Cc3nc4nc(C)cc(C)n4n3)C(=O)O2)cc(CC)n1 (stereo not given) >= 100
0

# bool: H1.0 immunofluorescence intensity of `CC(C)(CCCCCCCCCCC(C)(C)CC(=O)O)CC(=O)O` >= 100
0

# bool: H1.0 immunofluorescence intensity of `COc1ccc(-c2ccc(N)[n+](CCCC(=O)O)n2)cc1.[Br-]` >= 100
0

# bool: H1.0 immunofluorescence intensity of `C[N+](C)(C)CCOC(=O)CCC(=O)OCC[N+](C)(C)C.O.O.[Cl-].[Cl-]` >= 100
0

# bool: H1.0 immunofluorescence intensity of `c1ccc(-c2[nH]ncc2-c2ccnc3ccccc23)nc1` >= 100
0

* * *

Tested on: HCC1569
Experiment: cell number relative to DMSO (% of DMSO); higher = more cells (less growth inhibition / toxicity)
Conditions used: concentration: 10 µM; 24 h
Threshold rule: cell number greater than or equal to 100 is 1.0; below that, 0.0.

CC1=C2C(=COC(C)C2C)C(=O)C(C(=O)O)=C1O (configuration not stated) [Citrinin]
1.0
CCN(CC)CCCC(C)Nc1cc(/C=C/c2ccccc2Cl)nc2cc(Cl)ccc12 (configuration not stated)
0.0
CCCCCC(O)C=CC1C(O)CC(O)C1CC=CCCCC(=O)O (configuration not stated) [9a,11b Prostaglandin F2]
1.0

# bool: cell number of O=c1cc(N2CCOCC2)oc2c1ccc1ccccc12 [NU 7026 - 2-(4-Morpholinyl)-4H-naphthol[1,2-b]pyran-4-one] >= 100
0.0

# bool: cell number of C=CCc1ccccc1OCC(O)CNC(C)C.Cl (configuration not stated) [Alprenolol hydrochloride] >= 100
0.0

# bool: cell number of CC(C)C1NC(=O)C(CCCCN)NC(=O)C(Cc2c[nH]c3ccccc23)NC(=O)C(Cc2ccc(O)cc2)NC(=O)C(C)N(C)C(=O)C(Cc2ccccc2)NC1=O (configuration not stated) [Seglitide] >= 100
0.0

# bool: cell number of Cc1ccc(C(=O)Nc2ccc(S(=O)(=O)[O-])c3cc(S(=O)(=O)[O-])cc(S(=O)(=O)[O-])c23)cc1NC(=O)c1cccc(NC(=O)Nc2cccc(C(=O)Nc3cc(C(=O)Nc4ccc(S(=O)(=O)[O-])c5cc(S(=O)(=O)[O-])cc(S(=O)(=O)[O-])c45)ccc3C)c2)c1 [Suramin] >= 100
0.0

# bool: cell number of CCC12CCCN3CCc4c(n(c5ccccc45)C(=O)C1)C32 (single isomer, unassigned; (-)) [(-)-Eburnamonine] >= 100
0.0

# bool: cell number of CCCc1nc(C)c2c(=O)nc(-c3cc(S(=O)(=O)N4CCN(CC)CC4)ccc3OCC)[nH]n12 [Vardenafil] >= 100
1.0

* * *

Entries and their cell number
Tested on: TDF
Experiment: cell number relative to DMSO (% of DMSO); higher = more cells (less growth inhibition / toxicity)
Conditions used: concentration: 10 µM; 24 h
Kindly provide the number alone.

These solved cases illustrate the format of a correct answer.
CCCCCC(O)C=CC=CC=CC(O)CC=CCCCC(=O)O (stereo unspecified)
100
CCCCCC=CCC=CCC=CCCCCCCC(=O)OC(COCCCCCCCCCCCCCCCC)COP(=O)([O-])OCC[N+](C)(C)C (stereo unspecified)
98.5
Nc1ccn(C2OC(CO)C(O)C2(F)F)c(=O)n1 (stereo unspecified) [Gemcitabine]
42.4
CC(C)(O)CCC(O)C(C)(O)C1CCC2(O)C3=CC(=O)C4CC(O)C(O)CC4(C)C3CCC12C (stereo unspecified)
97
COc1ccc(-c2nn3c(-c4ccccn4)nnc3s2)cc1OC
103
CC(OC1OCCN(Cc2nc(=O)[nH][nH]2)C1c1ccc(F)cc1)c1cc(C(F)(F)F)cc(C(F)(F)F)c1 (stereo unspecified) [Aprepitant]
96.8
CCC=CCC=CCC=CCCCCCCCCCCCC(=O)O [Docosatrienoic acid]
97.7
CCc1c(CC(N)=O)c2cc(OCCCP(=O)(O)O)ccc2n1Cc1ccccc1
104
O=c1cc(-c2ccc(O)c(O)c2)oc2cc(O)c(C3OC(CO)C(O)C(O)C3O)c(O)c12 (stereo unspecified) [Homoorientin]
96.2
COc1cc2ncnc(Nc3cccc(Cl)c3)c2cc1OC
88

Attention now turns to another entry.
Per the records, this compound ( NS(=O)(=O)c1ccc2c(c1)C1C=CCC1C(c1ccc(Br)cc1)N2 (stereo unspecified) ) has cell number equal to 91.3

* * *

System: HCC1569
Experiment: H1.0 immunofluorescence intensity relative to DMSO (% of DMSO); higher = stronger H1.0 induction, active = 140 or more
Conditions used: concentration: 10 µM; 24 h
Entries and their H1.0 immunofluorescence intensity
Kindly provide the number alone.

These solved cases illustrate the format of a correct answer.
O=C(O)c1ccc(SC2=NS(=O)(=O)c3ccccc32)cc1 [4-((1,1-dioxidobenzo[d]isothiazol-3-yl)thio)benzoic acid]
98.7
O=C(NOCC1CC1)c1ccc(F)c(F)c1Nc1ccc(I)cc1Cl
116
CC1=C(CC(=O)O)c2cc(F)ccc2C1=Cc1ccc(S(C)=O)cc1 (stereo not given) [Sulindac]
100
O=C(O)Cc1c[nH]c2ccccc12 [Indole-3-acetic acid]
84.8
CC(O)C1C(=O)N2C(C(=O)O)=C(SCCN=CN)CC12 (stereo not given) [Imipenem]
102
O=C(C=Cc1ccc(O)c(O)c1)OCCc1ccccc1
113
CCCCCCCCCCCCCCCC(=O)NC(COP(=O)(O)O)C(=O)O (stereo not given)
98.9
O=[N+]([O-])c1ccc(Nc2nc(N3CCOCC3)nc(N3CCOCC3)n2)cc1
102
CN(C)CC(=O)Nc1ccc2[nH]c(=O)c3ccccc3c2c1.Cl.O
91.3

Attention now turns to another entry.
Per the records, this compound ( CC12CC3CC(C)(C1)CC(N)(C3)C2.Cl [Memantine hydrochloride] ) has H1.0 immunofluorescence intensity equal to 98.3

* * *

Tested on: TDF
Experiment: H1.0 immunofluorescence intensity relative to DMSO (% of DMSO); higher = stronger H1.0 induction, active = 120 or more
Conditions used: concentration: 10 µM; 24 h
Entries and their H1.0 immunofluorescence intensity
Kindly provide the number alone.

These solved cases illustrate the format of a correct answer.
NCCS(=O)(=O)O [Taurine]
96.4
COc1cccc(OC)c1OCCNCC1CSc2ccccc2O1.Cl (configuration not stated) [Benoxathian hydrochloride]
91.8
OCC1OC(n2cnc3c(Nc4ccccc4)ncnc32)C(O)C1O (configuration not stated) [N6-Phenyladenosine]
86.1

Per the records, this compound ( CC(NC(CCc1ccccc1)C(=O)O)C(=O)N1CCCC1C(=O)O (configuration not stated) [Enalaprilat] ) has H1.0 immunofluorescence intensity equal to 104

Per the records, this compound ( COc1cc2c(Nc3ccc(Br)cc3F)ncnc2cc1OCC1CCN(C)CC1 [Vandetanib] ) has H1.0 immunofluorescence intensity equal to 108

Per the records, this compound ( Cc1ccc(C(=O)Nc2ccc(S(=O)(=O)[O-])c3cc(S(=O)(=O)[O-])cc(S(=O)(=O)[O-])c23)cc1NC(=O)c1cccc(NC(=O)Nc2cccc(C(=O)Nc3cc(C(=O)Nc4ccc(S(=O)(=O)[O-])c5cc(S(=O)(=O)[O-])cc(S(=O)(=O)[O-])c45)ccc3C)c2)c1.[Na+].[Na+].[Na+].[Na+].[Na+].[Na+] [Suramin hexasodium] ) has H1.0 immunofluorescence intensity equal to 98.5

Per the records, this compound ( Nc1c2c(nc3ccccc13)CCCC2O.O=C(O)C=CC(=O)O (configuration not stated) [Hydroxytacrine] ) has H1.0 immunofluorescence intensity equal to 91.5
